Values compiled from the supplement of paper PMC10567573.

B1: CLINT1 (parent)
chain: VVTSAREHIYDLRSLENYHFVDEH

Variants of: B1
Assay: protein stability index of a GFP-peptide fusion (GPS, HEK-293T) (PSI 1-6); higher = more stable;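 further: lentivirally expressed fusions sorted by FACS into six bins by GFP to DsRed ratio, PSI derived from sequencing read proportions per bin multiplied by bin number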
Conditions: c terminus: a fixed tail appended
Parameter threshold = 3. Response is Criterion met when protein stability index meets or exceeds it, else Criterion not met.

Please check the record "E7A" and state if its protein stability index is at or above 3.
Criterion not met

Please check the record "D22W" and state if its protein stability index is at or above 3.
Criterion met

Please check the record "T3G" and state if its protein stability index is at or above 3.
Criterion met

Please check the record "F20Q" and state if its protein stability index is at or above 3.
Criterion met

Please check the record "N17L" and state if its protein stability index is at or above 3.
Criterion not met

Please check the record "E16G" and state if its protein stability index is at or above 3.
Criterion not met

Please check the record "H19I" and state if its protein stability index is at or above 3.
Criterion not met

Please check the record "D22T" and state if its protein stability index is at or above 3.
Criterion not met

Please check the record "E16T" and state if its protein stability index is at or above 3.
Criterion not met

Please check the record "H8P" and state if its protein stability index is at or above 3.
Criterion met

Please check the record "T3Y" and state if its protein stability index is at or above 3.
Criterion not met

Please check the record "N17G" and state if its protein stability index is at or above 3.
Criterion not met

Please check the record "V21R" and state if its protein stability index is at or above 3.
Criterion not met

Please check the record "Y18G" and state if its protein stability index is at or above 3.
Criterion met

Please check the record "S4H" and state if its protein stability index is at or above 3.
Criterion not met

Please check the record "Y18R" and state if its protein stability index is at or above 3.
Criterion met

Please check the record "D11N" and state if its protein stability index is at or above 3.
Criterion not met

Please check the record "S4W" and state if its protein stability index is at or above 3.
Criterion not met

Please check the record "A5P" and state if its protein stability index is at or above 3.
Criterion met

Please check the record "E16L" and state if its protein stability index is at or above 3.
Criterion not met

Please check the record "Y18F" and state if its protein stability index is at or above 3.
Criterion not met

Please check the record "R13W" and state if its protein stability index is at or above 3.
Criterion not met

Please check the record "H8N" and state if its protein stability index is at or above 3.
Criterion not met

Please check the record "V1N" and state if its protein stability index is at or above 3.
Criterion met
